# MEASURED_TARGET: purified reconstituted V-ATPase from bovine brain (Bos taurus, UniProt P23956+P61420+Q29466+Q2TA24)
# Construct: from tissue; host or cells: bovine brain
# ASSAY_DETAILS: Inhibition of purified reconstituted V-ATPase (proton pumping)
# Assay type: biochemical
# DETAILS: purified reconstituted V-ATPase from bovine brain; inhibition of proton pumping; read-out: IC50
PROPERTY_LABEL: IC50 (nM)
Write down the numeric answer in nM and omit the unit.

Please review the entries below; each comes with its answer.
[[record]]
compound = "CO/C1=C\\C(C)=C\\[C@@H](C)[C@@H](O)[C@@H](C)C/C(C)=C/C=C/[C@H](OC)[C@@H]([C@@H](C)[C@@H](O)[C@H](C)[C@@]2(O)C[C@@H](O)[C@H](C)[C@@H](C(C)C)O2)OC1=O [Bafilomycin A, reference compound]"
property_label = "IC50"
numeric_result = 3.1

[[record]]
compound = "C=CCOC(=O)/C=C/CC1C[C@@H](O)[C@@H](C)C/C=C/Cc2cccc(O)c2C(=O)O1 (stereo partly shown) [Compound 335b]"
property_label = "IC50"
numeric_result = 230


Which value of IC50 has been reported for CCCCCOC(=O)N/C=C/C[C@H]1C[C@@H](O)[C@@H](C)C/C=C/Cc2cccc(OC(=O)c3ccccc3)c2C(=O)O1 in the records?
300
